Just for reference, PubChem BioAssay AID1236 is where these values come from.

Tested on: calpain II (m-calpain), Sus scrofa
Experiment: inhibitors of pig calpain II, primary screen, biochemical, fluorogenic peptide substrate, 1536-well (AID 1236)
Conditions: purified calpain II, 30 min, at 16 µM, stronger effect = higher value
Among all 220,000 compounds or so, about 800 (0.36%) were called active. The entries come from a sample that favours actives as a whole.
Measured inhibition values are reported for all entries that follow.

molecule: CCOC(=O)CN/C=C(\C#N)c1ccc(F)cc1
targetOrTestSystem: calpain II (m-calpain), Sus scrofa
inhibition, %: -15.5

molecule: COc1ccc(OC)c2[nH]c(=O)c(CCNC(=O)C(=O)c3c[nH]c4ccccc34)cc12
targetOrTestSystem: calpain II (m-calpain), Sus scrofa
inhibition, %: -38.9

molecule: CCCCC(CC)CNC(=O)CCCCn1c(=O)[nH]c2ccsc2c1=O (stereo not given)
targetOrTestSystem: calpain II (m-calpain), Sus scrofa
inhibition, %: 13.6

molecule: O=C(COC(=O)c1ccc(Cl)nc1)NCc1cccs1
targetOrTestSystem: calpain II (m-calpain), Sus scrofa
inhibition, %: 13.2

molecule: Cc1cccc(NC(=S)N(CCN(C)C)C(C)c2ccco2)c1 (stereo not given)
targetOrTestSystem: calpain II (m-calpain), Sus scrofa
inhibition, %: -1.81

molecule: CC(C)c1nccn1S(=O)(=O)c1cc([N+](=O)[O-])ccc1Cl
targetOrTestSystem: calpain II (m-calpain), Sus scrofa
inhibition, %: 12

molecule: N#CCCCn1c(O)c(N=NC(=O)C(O)c2ccccc2)c2ccccc21 (stereo not given)
targetOrTestSystem: calpain II (m-calpain), Sus scrofa
inhibition, %: -3.6

molecule: COc1cc2sc(C)nc2cc1C
targetOrTestSystem: calpain II (m-calpain), Sus scrofa
inhibition, %: 2.42

molecule: O=c1cc(N2CCN(Cc3ccccc3)CC2)c(-c2ccccc2)n[nH]1
targetOrTestSystem: calpain II (m-calpain), Sus scrofa
inhibition, %: -13.6

molecule: CC(Sc1nnnn1C1CCCCC1)C(=O)O (stereo not given)
targetOrTestSystem: calpain II (m-calpain), Sus scrofa
inhibition, %: -11.2

molecule: O=c1c2ccccc2c(-c2ccccc2)nn1Cc1ccccc1
targetOrTestSystem: calpain II (m-calpain), Sus scrofa
inhibition, %: 11.2

molecule: O=C(c1ccc2c(c1)OCO2)N1CCN(C(=O)c2ccco2)CC1
targetOrTestSystem: calpain II (m-calpain), Sus scrofa
inhibition, %: 14.3

molecule: CCNC(=S)N1CCN(C(=O)c2ccco2)CC1
targetOrTestSystem: calpain II (m-calpain), Sus scrofa
inhibition, %: -6.94

molecule: O=C(N/N=C\c1cccc(Br)c1)c1ccccc1-n1cccc1
targetOrTestSystem: calpain II (m-calpain), Sus scrofa
inhibition, %: 68

molecule: O=c1cc(N2CCCCC2)c(-c2ccccc2)nn1Cc1cccc(F)c1
targetOrTestSystem: calpain II (m-calpain), Sus scrofa
inhibition, %: 55.9

molecule: CC(C)(C)c1cc(C(=O)NN)n(Cc2ccc(Cl)cc2Cl)n1
targetOrTestSystem: calpain II (m-calpain), Sus scrofa
inhibition, %: 17.2

molecule: CCN(CC)CCNC(=O)CCCCCn1c(=O)[nH]c2cc(C(=O)OC)ccc2c1=O
targetOrTestSystem: calpain II (m-calpain), Sus scrofa
inhibition, %: -103

molecule: C/C(=N\OCC(=O)O)c1ccc(Cl)cc1
targetOrTestSystem: calpain II (m-calpain), Sus scrofa
inhibition, %: 25.9

molecule: O=C(Oc1cccc(NC2=NS(=O)(=O)c3ccccc32)c1)c1ccncc1
targetOrTestSystem: calpain II (m-calpain), Sus scrofa
inhibition, %: -20.9

molecule: N=c1oc2ccccc2cc1C(=O)N/N=C/c1ccccc1
targetOrTestSystem: calpain II (m-calpain), Sus scrofa
inhibition, %: 14.5

molecule: CCc1ccc(Oc2nc([N+](=O)[O-])nn2C)cc1
targetOrTestSystem: calpain II (m-calpain), Sus scrofa
inhibition, %: -6.47

molecule: Cc1ccc(-n2ncc3c(Nc4cccc(C(=O)O)c4)ncnc32)cc1
targetOrTestSystem: calpain II (m-calpain), Sus scrofa
inhibition, %: 10.2

molecule: NNC(=O)c1cccc(COCC(F)(F)C(F)F)c1
targetOrTestSystem: calpain II (m-calpain), Sus scrofa
inhibition, %: 20.4

molecule: S=c1[nH]nc(Nc2ccccc2)s1
targetOrTestSystem: calpain II (m-calpain), Sus scrofa
inhibition, %: 31.7

molecule: CNc1nc(SC)nc(N(C#N)CC(=O)OC)n1
targetOrTestSystem: calpain II (m-calpain), Sus scrofa
inhibition, %: -4.33
